- Test system: HT-29
- METHOD NOTES: NCI tumour cell line growth inhibition, 48 h
Activity calls are given as the source filed them. No stated cut-off is given here; in the data, active = GI50 up to about 1.1 µM and inactive = higher. Where a SMILES comes first, the peptide text is derived from it. [ ]: non-standard residue; d: D form. The star is where a group is joined. Bn2Val = CC(C)[C@@H](C(=O)*)N(Cc1ccccc1)Cc1ccccc1; NHPiperonyl = c1cc2c(cc1CN*)OCO2; NMeV = CN[C@H](C(=O)O)C(C)C; dNMeA = CN[C@H](C)C(=O)O
Just give me one of these, please: active, inactive

Answered examples (5):
MOLECULE	QUALITATIVE LABEL
COc1ccc2c(c1)[n+]([O-])c1cc(C#N)ccc1[n+]2[O-]	inactive
C(=C(c1ccc(OC2CCCCO2)cc1)c1ccc(OC2CCCCO2)cc1)c1ccccc1 (stereo not given)	active
Clc1ccc2nc(-c3ccccc3)nc(Cl)c2c1	inactive
N=c1oc2ccc([N+](=O)[O-])cc2cc1C(=O)Nc1ccccn1	inactive
O=C(/C=C/c1ccc(O)c(O)c1)NC(CO)C(=O)O (stereo not given)	inactive

Enquiry: Entry `O=[N+]([O-])/C=C/c1cn(CCCCCCCCCCCCn2cc(/C=C/[N+](=O)[O-])c3ccccc32)c2ccccc12` : call = ?
Return: inactive

Enquiry: Entry `CCCCNC(=S)Nn1c(-c2ccccc2)nc2ccccc2c1=O` : call = ?
Return: inactive

Enquiry: Entry `COc1cc(Cn2c3c(c4c(CN(C)C)c(O)ccc42)C(=O)c2ccccc2C3=O)cc(OC)c1` : call = ?
Return: inactive

Enquiry: Entry CC1(C)O[C@H]2OC(CO)C(OS(C)(=O)=O)[C@H]2O1 (stereo not given in full) : call = ?
Return: inactive

Enquiry: Entry `COc1ccc(-c2nc(SCC(=O)NNC(=S)Nc3ccccc3)[nH]c2-c2ccc(OC)cc2)cc1` : call = ?
Return: inactive

Enquiry: Entry CC(C)[C@H](NC(=O)[C@H](C(C)C)N(Cc1ccccc1)Cc1ccccc1)C(=O)N(C)[C@H](C(=O)N1CCC[C@H]1C(=O)N(C)[C@H](C)C(=O)NCc1ccc2c(c1)OCO2)C(C)C (Bn2Val-V[NMeV]P[dNMeA]-NHPiperonyl) : call = ?
Return: inactive

Enquiry: Entry CC#CC#C/C=C1\C=CC2(OC=CC2O)O1 (stereo not given) : call = ?
Return: inactive

Enquiry: Entry `c1ccc(CSCCc2ccncc2)cc1` : call = ?
Return: inactive

Enquiry: Entry Cc1cc2c3ccccc3n3c2c2c1OC1(C)CCC(C2C1)C3(C)C (stereo not given) : call = ?
Return: inactive

Enquiry: Entry `N#C/C(=C/n1c(=S)[nH]c2ccccc21)C(N)=O` : call = ?
Return: inactive

Where these numbers come from: ChEMBL document CHEMBL1201862
